target: Electrophorus electricus AChE (Electrophorus electricus, UniProt O42275); assay: biochemical; assay type: biochemical; settings: mean ± SEM, n = 3; read-out: IC50 (μM) ± SEM eeAChE
Sequence (O42275 24-633): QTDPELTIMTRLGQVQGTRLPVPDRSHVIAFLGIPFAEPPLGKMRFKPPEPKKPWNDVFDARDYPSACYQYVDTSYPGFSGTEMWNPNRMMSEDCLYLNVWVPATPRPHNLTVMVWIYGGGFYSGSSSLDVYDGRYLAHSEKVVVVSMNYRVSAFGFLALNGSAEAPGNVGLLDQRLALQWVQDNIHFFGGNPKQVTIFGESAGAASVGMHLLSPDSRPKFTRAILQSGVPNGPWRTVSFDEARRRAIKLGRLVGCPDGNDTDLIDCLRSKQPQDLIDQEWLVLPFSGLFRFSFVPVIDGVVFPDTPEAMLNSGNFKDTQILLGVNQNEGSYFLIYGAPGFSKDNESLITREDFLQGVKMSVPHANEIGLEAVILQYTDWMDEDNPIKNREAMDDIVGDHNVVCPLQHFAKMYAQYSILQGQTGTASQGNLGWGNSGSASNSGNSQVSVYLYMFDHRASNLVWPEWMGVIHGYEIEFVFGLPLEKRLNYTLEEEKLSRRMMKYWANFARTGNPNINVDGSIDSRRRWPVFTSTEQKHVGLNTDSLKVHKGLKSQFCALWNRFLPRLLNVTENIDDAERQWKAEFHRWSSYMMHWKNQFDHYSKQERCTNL
Flag rule - IC50 less than 9 µM flags yes; the remaining entries get no.

SMI	GROUP
Cc1ccc2cc(-c3ccc(CN4C(=O)c5ccccc5C4=O)cc3)ccc2n1	yes
Cc1ccc(-c2ccc(CN3C(=O)c4ccccc4C3=O)cc2)cc1	yes
O=C1c2ccccc2C(=O)N1Cc1ccc(-c2ccc([N+](=O)[O-])cc2)cc1	yes
O=C1c2ccccc2C(=O)N1Cc1ccc(-c2ccc3c(c2)OCO3)cc1	no

* * *

biological target: Electrophorus electricus AChE (Electrophorus electricus); assay: biochemical; format: biochemical; settings: mean ± SEM, n = 3; read-out: IC50 (μM) ± SEM eeAChE
Each entry below carries its reported IC50.

SMI	UNIT_OF_MEASUREMENT	IC50
O=C1c2ccccc2C(=O)N1Cc1ccc(-c2cccc3ccccc23)cc1	µM	0.61
Cc1cc(C)c(-c2ccc(CN3C(=O)c4ccccc4C3=O)cc2)c(C)c1	µM	0.88
O=C1c2ccccc2C(=O)N1Cc1ccc(-c2ccc(C(F)(F)F)cc2)cc1	µM	0.24
N#CCc1ccc(-c2ccc(CN3C(=O)c4ccccc4C3=O)cc2)cc1	µM	13.4
Cc1cc(C)cc(-c2ccc(CN3C(=O)c4ccccc4C3=O)cc2)c1	µM	0.73
O=C1c2ccccc2C(=O)N1Cc1ccc(-c2cccc(C(F)(F)F)c2)cc1	µM	4.48
O=C1c2ccccc2C(=O)N1Cc1ccc(-c2cccs2)cc1	µM	0.91

* * *

Target: human MAO-A (Homo sapiens, UniProt P21397)
Sequence (P21397 1-527): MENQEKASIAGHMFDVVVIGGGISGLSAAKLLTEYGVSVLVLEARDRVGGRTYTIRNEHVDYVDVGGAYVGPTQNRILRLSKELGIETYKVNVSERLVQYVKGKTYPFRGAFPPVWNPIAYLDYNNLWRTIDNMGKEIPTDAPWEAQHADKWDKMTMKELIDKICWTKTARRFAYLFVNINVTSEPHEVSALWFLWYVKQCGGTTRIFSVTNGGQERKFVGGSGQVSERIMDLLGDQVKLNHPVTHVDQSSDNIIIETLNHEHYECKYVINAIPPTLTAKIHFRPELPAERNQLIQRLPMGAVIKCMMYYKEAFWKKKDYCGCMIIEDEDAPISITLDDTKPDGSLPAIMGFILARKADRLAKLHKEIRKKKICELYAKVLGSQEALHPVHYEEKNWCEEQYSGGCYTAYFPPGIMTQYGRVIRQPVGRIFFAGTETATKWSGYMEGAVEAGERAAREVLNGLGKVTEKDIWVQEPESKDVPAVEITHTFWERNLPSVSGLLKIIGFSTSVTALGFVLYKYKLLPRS
Assay: Human MAO isoform inhibition assay (fluorometric), MAO-A
Type: biochemical
Conditions: mean ± SEM, n = 3; read-out: IC50 (μM) ± SEM hMAO-A
Each entry below carries its reported log10 IC50.
READOUT_LABEL: log10 IC50 (log10 of the value in µM)

SMI	RESULT_NUMBER
O=C1c2ccccc2C(=O)N1Cc1ccc(-c2cccs2)cc1	0.92
O=C1c2ccccc2C(=O)N1Cc1ccc(-c2ccc3c(c2)OCO3)cc1	1.61
N#CCc1ccc(-c2ccc(CN3C(=O)c4ccccc4C3=O)cc2)cc1	0.74
O=C1c2ccccc2C(=O)N1Cc1ccc(-c2cccc3ccccc23)cc1	0.84
O=C1c2ccccc2C(=O)N1Cc1ccc(-c2ccc(C(F)(F)F)cc2)cc1	1.22
Cc1ccc(-c2ccc(CN3C(=O)c4ccccc4C3=O)cc2)cc1	1.29
Cc1cc(C)c(-c2ccc(CN3C(=O)c4ccccc4C3=O)cc2)c(C)c1	1.71
Cc1cc(C)cc(-c2ccc(CN3C(=O)c4ccccc4C3=O)cc2)c1	1.88
O=C1c2ccccc2C(=O)N1Cc1ccc(-c2ccc([N+](=O)[O-])cc2)cc1	1.29
Cc1ccc2cc(-c3ccc(CN4C(=O)c5ccccc5C4=O)cc3)ccc2n1	1.37
O=C1c2ccccc2C(=O)N1Cc1ccc(-c2cccc(C(F)(F)F)c2)cc1	1.05
N#Cc1ccc(-c2ccc(CN3C(=O)c4ccccc4C3=O)cc2)cc1	1.46

* * *

Each entry below carries its reported log10(IC50).
biological target: equine serum lyophilized BChE (Equus caballus); construct: Equine Serum lyophilized BChE; from tissue; host or cells: equine serum; assay: biochemical; conditions: mean ± SEM, n = 3; read-out: IC50 (μM) ± SEM eqBChE
Sequence (P81908 whole entry): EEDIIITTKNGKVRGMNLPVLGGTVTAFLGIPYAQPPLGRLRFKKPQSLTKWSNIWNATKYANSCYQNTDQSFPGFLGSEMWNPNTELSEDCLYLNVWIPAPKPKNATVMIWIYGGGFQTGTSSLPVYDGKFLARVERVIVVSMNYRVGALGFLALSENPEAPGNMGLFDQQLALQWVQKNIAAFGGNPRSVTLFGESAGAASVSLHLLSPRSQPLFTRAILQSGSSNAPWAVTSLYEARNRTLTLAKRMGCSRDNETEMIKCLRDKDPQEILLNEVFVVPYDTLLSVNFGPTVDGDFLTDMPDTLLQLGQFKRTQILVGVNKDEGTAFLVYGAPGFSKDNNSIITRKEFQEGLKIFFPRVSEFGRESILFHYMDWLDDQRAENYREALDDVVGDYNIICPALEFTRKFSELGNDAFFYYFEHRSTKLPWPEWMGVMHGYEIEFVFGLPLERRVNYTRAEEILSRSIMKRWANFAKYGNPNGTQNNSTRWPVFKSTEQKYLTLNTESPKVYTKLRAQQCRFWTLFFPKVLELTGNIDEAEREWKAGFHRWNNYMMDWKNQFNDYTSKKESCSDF
READOUT_LABEL: log10(IC50) (log10 of the value in µM)

MOLECULE	RESULT_NUMBER
O=C1c2ccccc2C(=O)N1Cc1ccc(-c2ccc([N+](=O)[O-])cc2)cc1 [3c]	1.69
Cc1cc(C)c(-c2ccc(CN3C(=O)c4ccccc4C3=O)cc2)c(C)c1 [3i]	1.69
O=C1c2ccccc2C(=O)N1Cc1ccc(-c2ccc(C(F)(F)F)cc2)cc1 [3e]	0.80
O=C1c2ccccc2C(=O)N1Cc1ccc(-c2cccs2)cc1 [3l]	1.74
O=C1c2ccccc2C(=O)N1Cc1ccc(-c2ccc3c(c2)OCO3)cc1 [3k]	1.91
Cc1ccc2cc(-c3ccc(CN4C(=O)c5ccccc5C4=O)cc3)ccc2n1 [3m]	1.49
N#Cc1ccc(-c2ccc(CN3C(=O)c4ccccc4C3=O)cc2)cc1 [3d]	1.53
O=C1c2ccccc2C(=O)N1Cc1ccc(-c2cccc3ccccc23)cc1 [3j]	1.28
N#CCc1ccc(-c2ccc(CN3C(=O)c4ccccc4C3=O)cc2)cc1 [3g]	2.00
Cc1cc(C)cc(-c2ccc(CN3C(=O)c4ccccc4C3=O)cc2)c1 [3h]	1.47
Cc1ccc(-c2ccc(CN3C(=O)c4ccccc4C3=O)cc2)cc1 [3a]	1.69
O=C1c2ccccc2C(=O)N1Cc1ccc(-c2cccc(C(F)(F)F)c2)cc1 [3f]	1.23

* * *

biological target: UniProt:P27338; experiment: Human MAO isoform inhibition assay (fluorometric), MAO-B; type: biochemical; conditions: mean ± SEM, n = 3; read-out: IC50 (μM) ± SEM hMAO-B
Sequence (P27338 whole entry, canonical isoform): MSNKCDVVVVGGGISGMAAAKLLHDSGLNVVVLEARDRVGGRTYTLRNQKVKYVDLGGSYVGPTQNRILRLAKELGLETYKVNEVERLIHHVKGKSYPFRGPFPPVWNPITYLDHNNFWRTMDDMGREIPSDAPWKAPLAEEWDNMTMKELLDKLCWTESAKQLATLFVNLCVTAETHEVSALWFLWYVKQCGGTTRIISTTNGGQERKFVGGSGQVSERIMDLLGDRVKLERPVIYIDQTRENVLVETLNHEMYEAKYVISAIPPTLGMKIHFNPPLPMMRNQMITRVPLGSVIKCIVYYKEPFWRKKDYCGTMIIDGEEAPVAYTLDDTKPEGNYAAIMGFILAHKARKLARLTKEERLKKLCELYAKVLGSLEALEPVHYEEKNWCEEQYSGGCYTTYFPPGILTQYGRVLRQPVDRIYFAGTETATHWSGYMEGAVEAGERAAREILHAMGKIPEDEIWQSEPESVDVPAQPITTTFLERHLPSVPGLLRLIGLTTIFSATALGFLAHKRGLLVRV
Flag rule - IC50 less than 0.2 µM flags TRUE; the remaining entries get FALSE.

COMPOUND	GROUP
O=C1c2ccccc2C(=O)N1Cc1ccc(-c2cccs2)cc1 [3l]	TRUE
N#CCc1ccc(-c2ccc(CN3C(=O)c4ccccc4C3=O)cc2)cc1 [3g]	FALSE
Cc1ccc2cc(-c3ccc(CN4C(=O)c5ccccc5C4=O)cc3)ccc2n1 [3m]	TRUE
O=C1c2ccccc2C(=O)N1Cc1ccc(-c2ccc([N+](=O)[O-])cc2)cc1 [3c]	FALSE
N#Cc1ccc(-c2ccc(CN3C(=O)c4ccccc4C3=O)cc2)cc1 [3d]	FALSE
O=C1c2ccccc2C(=O)N1Cc1ccc(-c2ccc(C(F)(F)F)cc2)cc1 [3e]	TRUE

* * *

Each entry below carries its reported IC50.
biological target: UniProt:P27338; assay: Human MAO isoform inhibition assay (fluorometric), MAO-B; type: biochemical; conditions: mean ± SEM, n = 3; read-out: IC50 (μM) ± SEM hMAO-B
READOUT_LABEL: IC50 (µM)

COMPOUND	RESULT_NUMBER
O=C1c2ccccc2C(=O)N1Cc1ccc(-c2cccc3ccccc23)cc1 [3j]	0.13
O=C1c2ccccc2C(=O)N1Cc1ccc(-c2ccc3c(c2)OCO3)cc1 [3k]	0.66
Cc1ccc(-c2ccc(CN3C(=O)c4ccccc4C3=O)cc2)cc1 [3a]	1.04
Cc1cc(C)cc(-c2ccc(CN3C(=O)c4ccccc4C3=O)cc2)c1 [3h]	0.64
Cc1cc(C)c(-c2ccc(CN3C(=O)c4ccccc4C3=O)cc2)c(C)c1 [3i]	0.71

* * *

Target: Electrophorus electricus AChE (Electrophorus electricus, UniProt O42275)
Assay: biochemical
Format: biochemical
Settings: selectivity index
Procedure: The synthesized compounds were evaluated for their inhibition potential against cholinesterases (Electrophorus electricus AChE and equine serum lyophilized BChE). The cholinesterase in vitro bioassay for the synthesized compounds was performed using already reported protocols.[29],[30] Ellman’s assay method was used to study the inhibition of Electrophorus electricus AChE and Equine Serum lyophilized BChE. […]

COMPOUND	TGT	SI = IC50 of BChE/IC50 of AChE
N#Cc1ccc(-c2ccc(CN3C(=O)c4ccccc4C3=O)cc2)cc1 [3d]	Electrophorus electricus AChE (Electrophorus electricus, UniProt O42275)	4
O=C1c2ccccc2C(=O)N1Cc1ccc(-c2ccc(C(F)(F)F)cc2)cc1 [3e]	Electrophorus electricus AChE (Electrophorus electricus, UniProt O42275)	26
Cc1ccc(-c2ccc(CN3C(=O)c4ccccc4C3=O)cc2)cc1 [3a]	Electrophorus electricus AChE (Electrophorus electricus, UniProt O42275)	15
N#CCc1ccc(-c2ccc(CN3C(=O)c4ccccc4C3=O)cc2)cc1 [3g]	Electrophorus electricus AChE (Electrophorus electricus, UniProt O42275)	7
Cc1cc(C)c(-c2ccc(CN3C(=O)c4ccccc4C3=O)cc2)c(C)c1 [3i]	Electrophorus electricus AChE (Electrophorus electricus, UniProt O42275)	56
O=C1c2ccccc2C(=O)N1Cc1ccc(-c2cccc(C(F)(F)F)c2)cc1 [3f]	Electrophorus electricus AChE (Electrophorus electricus, UniProt O42275)	4
